Kindly state growth for each of the entries shown.
System: OVCAR-5 ovarian
Assay: NCI-60 one-dose screen, 48 h (100 = growth as untreated, 0 = no growth, -100 = all killed)
Settings: 10 µM unless noted
This is part of a sample that, as a whole, favours compounds with a hit. Of some 83,000 tested, about 20% had one in any assay.
Numbers only, in %.

{"compound": "C#C[C@]1(O)CC[C@H]2[C@@H]3CC=C4c5sc(N(C)c6ccccc6)nc5CC[C@]4(C)[C@H]3CC[C@@]21C", "outputUnit": "%", "growth": 92.5}
{"compound": "CCCC/C(=C\\c1ccc(O)c(O)c1)C(=O)NC(Cc1ccccc1)C(=O)C(=O)NCCc1ccc(OC)cc1 (configuration not stated)", "outputUnit": "%", "growth": 99.3}
{"compound": "COc1ccccc1/C=C1\\Oc2ccc(O)c(O)c2C1=O", "outputUnit": "%", "growth": 105}

I would be grateful if you could provide growth for each of the following entries.
1. O=C1C(SCc2ccccc2)=C(Cl)CN1c1ccc(Cl)cc1
2. O=C(CCCCCCNC(=O)C(O)(O)C(F)(F)F)Nc1ccc(Br)cc1
3. CC(C)(C)Nc1nc2c(OCCc3ccccc3)cccn2c1-c1ccc([N+](=O)[O-])cc1
4. Cc1ccc2c(n1)C(=O)C(Cl)=C(Nc1cccc(C(F)(F)F)c1)C2=O
5. Cc1ccc(/C=N/Nc2nc(Nc3ccccc3)nc(Nc3ccc(S(N)(=O)=O)cc3)n2)cc1

Key:
1: 109; 2: 5.89; 3: 67.3; 4: 119; 5: 84.5

I would be grateful if you could provide growth for each of the following entries.
1. COc1ccc2c(c1)c(/C=N/Nc1ccnc3cc(Cl)ccc13)cn2C
2. COc1cccc(N2CCN(C3=C(Cl)C(=O)c4ncccc4C3=O)CC2)c1

Key:
[-87.3, 124]

I would be grateful if you could provide growth for each of the following entries.
1. CCOC(=O)c1cccc(NC2=C(Cl)C(=O)C(C)=C(C)C2=O)c1
2. CSc1ccc(/C(=N/N=C(N)N)c2ccc(F)cc2)cc1
3. Clc1ccc2[nH]cc(-c3nn4cc(-c5ccncc5)nc4s3)c2c1

Key:
105
43.9
98.8

I would be grateful if you could provide growth for each of the following entries.
1. CCc1cc(O)ccc1Nc1cc(-c2ccc(-n3cccn3)cc2)[nH]n1
2. CN1CCN(Cc2ccc(NC(=O)c3cncc(C#Cc4cnc5ccc(NCCO)nn45)c3)cc2C(F)(F)F)CC1
3. CC(Nc1c(C#N)cnc2ccc(-c3cncc(O)c3)cc12)c1ccccc1 (configuration not stated)
4. CC(C)=CCC[C@](C)(O)[C@H]1CC[C@]2(C)[C@@H]1CC[C@@H]1[C@@]3(C)CC[C@H](N)C(C)(C)[C@@H]3CC[C@]12C
5. C#CCOc1ccc(-c2csc(NC(=O)C=C)n2)cc1NS(=O)(=O)c1cccc2c(N(C)C)cccc12
6. Cc1ccccc1N1CCN(C2=C(Cl)C(=O)c3ncccc3C2=O)CC1
7. Cc1[nH]c(C(=O)Nc2ccccc2OCc2cccc(C(=O)NC3CCCNC3)c2)c(Cl)c1Cl (configuration not stated)

Key:
1: 78.5; 2: 5.23; 3: 25.6; 4: 108; 5: 81.1; 6: 98.4; 7: -87.8

I would be grateful if you could provide growth for each of the following entries.
1. CNC(=O)c1cc(-n2ccc3cc(NC(=O)Nc4ccc(N5CCN(C)CC5)c(C(F)(F)F)c4)ccc32)ccn1
2. CC(=O)N1N=C(c2cc3ccccc3oc2=O)CC1c1cn(-c2ccccc2)nc1-c1ccc(C)cc1 (configuration not stated)

Key:
1: 90; 2: 94.1
